Source listed as PubChem BioAssay (NCI).

# Test system: M14 melanoma
# assay-info: NCI tumour cell line growth inhibition, 48 h
Below: a set of entries, each annotated with reported TGI.

- compound: "Cc1ccc(/C=C2\\CCS(=O)(=O)c3ccccc3C2=O)cc1"
  TGI: "73.6 µM"
- compound: "CC(C)C1CCC(=O)CC1CCCCC1CC(=O)CC1O[Si](C)(C)C(C)(C)C (stereo not drawn)"
  TGI: "43.4 µM"
- compound: "COC(=O)/C=C(C)/C=C/c1c(C)c(C(C)=O)c(C)n1C"
  TGI: "> 100 µM"
- compound: "CC(C)(C)c1cc(OCc2n[nH]c(=S)n2N)c(Cl)cc1OCc1n[nH]c(=S)n1N"
  TGI: "> 100 µM"
- compound: "C[C@@]12C[C@@H](c3ccccc3O1)N1CCCSC1=N2"
  TGI: "> 100 µM"

(Q) GET TGI where system = M14 melanoma and item = N#Cc1ccc(C(=O)c2cnn(-c3ccc(F)cc3)c2N)cc1
(A) > 25 µM

(Q) GET TGI where system = M14 melanoma and item = CN(C)c1ccc(/C=N/n2c(CCCCc3n[nH]c(=S)n3/N=C/c3ccc(N(C)C)cc3)n[nH]c2=S)cc1
(A) > 100 µM

(Q) GET TGI where system = M14 melanoma and item = CCOC(=O)CN1C(=O)c2c(NC(=O)C(=O)O)cccc2S1(=O)=O
(A) > 100 µM

(Q) GET TGI where system = M14 melanoma and item = COc1ccccc1/C=C1\CCC(CN2CCOCC2)C1=O (stereo not drawn)
(A) 18.8 µM

(Q) GET TGI where system = M14 melanoma and item = Cc1ccc2c(c1)C(=O)/C(=C/c1cccc(OCC(=O)c3ccc(Cl)cc3)c1)CS2
(A) 27.4 µM

(Q) GET TGI where system = M14 melanoma and item = Oc1c(Cl)c(Cl)c(O)c(-c2cnc(-c3ncc(-c4c(O)c(Cl)c(Cl)c(O)c4Cl)s3)s2)c1Cl
(A) 47.2 µM

(Q) GET TGI where system = M14 melanoma and item = S=C1C(CCCOCc2ccccc2)C2CCCC23CC2(CCN13)OCCS2 (stereo not drawn)
(A) > 10 µM

###

# Test system: 786-0 renal
# assay-info: NCI tumour cell line growth inhibition, 48 h
endpoint-name: TGI (µM)
The reply should contain only the number, in µM.

Examples with their reported TGI follow.
- molecule: "C=C1C(=O)O[C@H]2[C@H]1CC/C(CNC(=O)C(C)c1ccc(CC(C)C)cc1)=C\\CC[C@@]1(C)O[C@@H]21 (stereo not given in full)"
  observed-measurement: 3.36
- molecule: "C=C(C)C1CC=C(C)C(O)([C@@]2(O)C[C@H](C(=C)C)CC=C2C)C1 (stereo not given in full)"
  observed-measurement: 31.3
- molecule: "COc1cc(C2SCC(=O)N2c2ccc(Cl)cc2)cc(OC)c1OC (stereo not given)"
  observed-measurement: 99.6
- molecule: "CC(/C=C1\\CCC(CN(C)C)C1=O)c1cccc(Br)c1 (stereo not given)"
  observed-measurement: 12.3

Kindly consider the entry below.
(Q) Determine from records and report TGI for O=C(/C=C/c1ccc(Cl)cc1)c1nc2ccccc2[nH]1
(A) 29.6

###

Below: a set of entries, each annotated with reported GI50.
# System: CCRF-CEM leukemia

(Q) Determine from records and report GI50 for CCN(CC)CCOc1ccc(NC(=O)C(C(C)C)N2C(=O)/C(=C/c3ccc(Br)cc3)SC2=S)cc1 (configuration not stated)
(A) 2.82 µM

(Q) Determine from records and report GI50 for Cc1c(C(=O)/C=C/c2ccc(Cl)cc2)nnn1-c1ccnc2c(C(F)(F)F)cccc12
(A) 15.3 µM

(Q) Determine from records and report GI50 for Cc1cnc(-c2ccc(-c3ccc(NC(=O)Nc4cccc(C(F)(F)F)c4)cc3F)c3c2C(=O)NC3)[nH]1
(A) 1.31 µM

(Q) Determine from records and report GI50 for CN(C)c1ccc(/C=N/n2c(CCCCc3n[nH]c(=S)n3/N=C/c3ccc(N(C)C)cc3)n[nH]c2=S)cc1
(A) > 100 µM

(Q) Determine from records and report GI50 for CC[C@H](C)C(=O)O[C@H]1CCC=C2C=C[C@H](C)[C@H](CC[C@@H]3C[C@@H](O)CC(=O)O3)[C@H]21
(A) 34.1 µM

(Q) Determine from records and report GI50 for O=C1/C=C/[C@@H](O)[C@@H]2C[C@@H](O)C[C@H]2/C=C/CCC[C@H](CCc2ccc(NC(=S)Nc3ccc4c(c3)C(=O)OC43c4ccc(O)cc4Oc4cc(O)ccc43)cc2)O1
(A) 0.426 µM

(Q) Determine from records and report GI50 for CCc1c2c(nc3ccc(OC(=O)OCc4ccc(B5OC(C)(C)C(C)(C)O5)cc4)cc13)-c1cc3c(c(=O)n1C2)COC(=O)[C@]3(O)CC
(A) < 0.01 µM

(Q) Determine from records and report GI50 for Cc1cc2oc(=O)cc(OC/C=C3/CCC(=O)O3)c2cc1C
(A) 2.33 µM

(Q) Determine from records and report GI50 for COc1cc(Cn2c3ccccc3c3cc(C)cc(OC)c32)cc2c1[nH]c1ccccc12
(A) 12 µM

(Q) Determine from records and report GI50 for C=C1C(=O)O[C@H]2[C@H]1CC/C(CNC(=O)C(C)c1ccc(CC(C)C)cc1)=C\CC[C@@]1(C)O[C@@H]21 (some centres not stated)
(A) 0.551 µM

(Q) Determine from records and report GI50 for CN(CO)c1nc(N(C)CO)nc(N(C)CO)n1
(A) 25.5 µM

(Q) Determine from records and report GI50 for O=c1oc2c(O)c(O)cc3c(=O)oc4c(O)c(O)cc1c4c23
(A) > 100 µM

###

Below: a set of entries, each annotated with reported TGI.
# Test system: HCC-2998 colon
# assay-info: NCI tumour cell line growth inhibition, 48 h

Examples with their reported TGI follow.
- compound: "Cc1ccc(C(CCO)CCO)nc1"
  TGI: "> 100 µM"
- compound: "O=C(CS(=O)c1nc2ccccc2nc1-c1ccccc1)Nc1ccc(Cl)cc1 (centres undefined)"
  TGI: "84.9 µM"
- compound: "O=[N+]([O-])c1cc(C(F)(F)F)cc2c1SC1=Nc3ccccc3CN12"
  TGI: "> 100 µM"

Kindly consider the entry below.
(Q) GET TGI where system = HCC-2998 colon and item = COc1cc2cnc3c4cc(O)ccc4ccc3c2cc1OC
(A) > 100 µM

###

# System: HCT-116 colon
# assay-info: NCI tumour cell line growth inhibition, 48 h
Below: a set of entries, each annotated with reported TGI.
The reply should contain only the number, in µM.

Examples with their reported TGI follow.
- molecule: "CCC1=CCC(P(=O)(c2ccccc2)c2ccccc2)CC1C (stereo not drawn)"
  TGI / µM: 63.8
- molecule: "COc1ccc2nc3c([N+](=O)[O-])ccc4c3c(c2c1)N=CN4CCN(C)C"
  TGI / µM: 13.6
- molecule: "Cc1cc2nc3c(C#N)c4c(c(Cl)n3c2cc1C)CCC4"
  TGI / µM: 29.6

Kindly consider the entry below.
(Q) Determine from records and report TGI for Cc1cnc(-c2ccc(-c3ccc(NC(=O)Nc4cccc(C(F)(F)F)c4)cc3F)c3c2C(=O)NC3)[nH]1
(A) 23.8

###

# System: OVCAR-5 ovarian
# assay-info: NCI tumour cell line growth inhibition, 48 h
Tag: Satisfied if measured TGI is not below 40 µM, Not satisfied if it is.

These recorded examples may help you get a feel for the data.
- compound: "CC(C)(Cl)C(Cl)CC/C(CBr)=C(\\Cl)CBr (stereo unspecified)"
  target-of-assay: "OVCAR-5 ovarian"
  answer-label: "Not satisfied"
- compound: "CC(C)c1ccc(C(c2c(O)c3ccccc3oc2=O)c2c(O)c3ccccc3oc2=O)cc1"
  target-of-assay: "OVCAR-5 ovarian"
  answer-label: "Not satisfied"
- compound: "COC(=O)N1C2C(C[C@@]1(C)C(=O)OC)c1ccccc1N2S(=O)(=O)c1ccccc1 (stereo partly specified)"
  target-of-assay: "OVCAR-5 ovarian"
  answer-label: "Satisfied"
- compound: "COc1ccccc1NC(=O)C(=O)C(c1cnc2ccc([N+](=O)[O-])cc2n1)[N+](=O)[O-] (stereo unspecified)"
  target-of-assay: "OVCAR-5 ovarian"
  answer-label: "Satisfied"
- compound: "COc1ccc2[nH]cc(C3(c4c[nH]c5ccc(OC)cc45)C(=O)Nc4ccc(Cl)cc43)c2c1"
  target-of-assay: "OVCAR-5 ovarian"
  answer-label: "Satisfied"

(Q) Identify whether the reported TGI of the following compound is 40 µM or greater: Cc1cc2nc3c(C#N)c4c(c(Cl)n3c2cc1C)CCC4
(A) Satisfied

(Q) Identify whether the reported TGI of the following compound is 40 µM or greater: CC1(C)C2=CCCC(=O)[C@@]2(C)CC[C@@H]1O
(A) Satisfied

(Q) Identify whether the reported TGI of the following compound is 40 µM or greater: O=C(CS(=O)c1nc2ccccc2nc1-c1ccccc1)Nc1ccc(Cl)cc1 (stereo unspecified)
(A) Satisfied

(Q) Identify whether the reported TGI of the following compound is 40 µM or greater: O=C1/C(=C/c2cccc([N+](=O)[O-])c2)Cc2ccccc21
(A) Satisfied

(Q) Identify whether the reported TGI of the following compound is 40 µM or greater: Cc1ccc2c(c1)C(=O)/C(=C/c1cccc(OCC(=O)c3ccc(Cl)cc3)c1)CS2
(A) Not satisfied

(Q) Identify whether the reported TGI of the following compound is 40 µM or greater: O=[N+]([O-])c1cc(C(F)(F)F)cc2n[se]nc12
(A) Not satisfied
